The values you see were collected from patent US20240360134A1.

Target Or System: His6-TEV-PDGFRβ (557-1016) (Homo sapiens (Human))
Assay: PDGFRβ HTRF Assay
Format: biochemical
Recorded Conditions: 800 μM ATP, 0.5 μM TK-substrate biotin peptide, 30 min pre-incubation, 3 hours reaction; read-out: PDGFR HTRF IC50
pIC50: −log10 of the molar value.
Quantity Measured: pIC50

Compound	Experimental Value
COCCn1cc(Nc2ncc3c(Nc4cc(NC(=O)CN5CC6CCC5CC6)cnc4C)nn(C)c3n2)cn1 [Example 127]	9.57
Cn1nc(Nc2cc(C(=O)NCCN3CCCC3(C)C)ccc2F)c2cnc(Nc3cncnc3)nc21 [Example 51]	9.06
Cc1ncc(C(=O)NCCN2CCC(C)(C)C2)cc1Nc1nn(C)c2nc(Nc3cncnc3)ncc12 [Example 8]	9.41

----------
Target Or System: Tb-labeled inactive PDGFRβ (Homo sapiens (Human), UniProt P09619)
Sequence (P09619 whole entry, looked up): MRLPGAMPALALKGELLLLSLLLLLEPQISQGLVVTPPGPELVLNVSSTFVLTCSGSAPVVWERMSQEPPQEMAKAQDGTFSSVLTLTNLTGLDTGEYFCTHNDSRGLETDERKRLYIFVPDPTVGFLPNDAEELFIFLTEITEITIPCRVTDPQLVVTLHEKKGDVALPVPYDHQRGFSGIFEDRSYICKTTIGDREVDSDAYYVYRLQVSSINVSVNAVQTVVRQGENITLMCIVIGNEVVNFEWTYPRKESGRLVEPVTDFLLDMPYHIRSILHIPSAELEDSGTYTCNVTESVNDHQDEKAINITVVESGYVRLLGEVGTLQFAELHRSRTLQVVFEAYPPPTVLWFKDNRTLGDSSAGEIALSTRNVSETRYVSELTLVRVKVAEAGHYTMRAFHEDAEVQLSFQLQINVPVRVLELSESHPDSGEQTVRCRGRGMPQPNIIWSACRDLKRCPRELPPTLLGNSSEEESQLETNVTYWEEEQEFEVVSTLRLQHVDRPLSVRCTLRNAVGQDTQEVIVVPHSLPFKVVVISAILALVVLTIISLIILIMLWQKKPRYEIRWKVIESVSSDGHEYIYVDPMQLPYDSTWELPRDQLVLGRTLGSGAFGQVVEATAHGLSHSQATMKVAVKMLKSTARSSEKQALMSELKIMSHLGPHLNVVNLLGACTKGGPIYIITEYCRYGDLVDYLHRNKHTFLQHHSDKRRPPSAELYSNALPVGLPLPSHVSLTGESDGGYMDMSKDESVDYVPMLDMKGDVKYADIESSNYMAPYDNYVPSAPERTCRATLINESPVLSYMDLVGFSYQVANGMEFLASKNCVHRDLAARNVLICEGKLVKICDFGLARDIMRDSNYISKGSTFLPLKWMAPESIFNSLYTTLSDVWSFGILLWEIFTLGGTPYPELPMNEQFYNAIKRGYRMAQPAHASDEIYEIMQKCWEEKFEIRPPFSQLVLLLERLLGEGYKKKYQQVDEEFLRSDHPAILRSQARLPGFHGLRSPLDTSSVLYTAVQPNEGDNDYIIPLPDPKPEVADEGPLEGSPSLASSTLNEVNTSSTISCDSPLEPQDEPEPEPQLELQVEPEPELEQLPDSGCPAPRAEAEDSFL
Assay: biochemical
Assay type: binding
Recorded Conditions: read-out: PDGFR Lantha IC50
Parameter IC50: see the listing below.

Molecule	IC50
Cc1ncc(C(=O)NCCN2[C@H](C)CCC[C@@H]2C)cc1Nc1nn(C)c2nc(Nc3cncnc3)ncc12 [Example 14]	8.5 nM
Cc1ncc(C(=O)NCCN2CCC[C@@H]2C)cc1Nc1nn(C)c2nc(Nc3cnn(C)c3C)ncc12 [Example 155]	15.5 nM
COC(=O)C1(c2cccc(Nc3ncc4c(Nc5cc(C(=O)NCCN6CCCC6(C)C)cnc5C)nn(C)c4n3)c2)CC1 [Example 37]	6.5 nM
Cc1ncc(C(=O)NCCN2CCC3(CCC3)CC2)cc1Nc1nn(C)c2nc(Nc3cncnc3)ncc12 [Example 7]	6.7 nM
Cc1nn(C)cc1Nc1ncc2c(Nc3cc(C(=O)NCCN4CCC5(CC5)C4)cnc3C)nn(C)c2n1 [Example 154]	12 nM
Cn1nc(Nc2cc(C(=O)NCCN3CCCC3(C)C)ccc2F)c2cnc(Nc3cncnc3)nc21 [Example 51]	9 nM

----------
Target Or System: VEGFR2, unphosphorylated (Homo sapiens (Human))
Assay: VEGFR ADP GLO assay
Recorded Conditions: 5 nM VEGFR2, 1.2 mM ATP, 1 mg/mL Srctide, 180 min
pIC50: −log10 of the molar value.
Parameter pIC50: see the listing below.
Quantity Measured: pIC50

Molecule	Quantity Measured	Qualifier Symbol	Experimental Value
Cc1ncc(C(=O)NCCC2CCCCC2)cc1Nc1nn(C)c2nc(Nc3ccc(CC#N)nc3)ncc12 [Example 105]	pIC50	=	5.47
CC[C@@H]1CN(CCNC(=O)c2cnc(C)c(Nc3nn(C)c4nc(Nc5cnn(C)c5)ncc34)c2)CCO1 [Example 88]	pIC50	<	5.12
Cc1ncc(C(=O)NCCN2CCCC23CC3)cc1Nc1nn(C)c2nc(Nc3cncnc3)ncc12 [Example 57]	pIC50	<	5.12
Cc1ncc(C(=O)NCCN2CCCC23CC3)cc1Nc1nn(C)c2nc(Nc3cnn(C)c3)ncc12 [Example 53]	pIC50	=	5.37
Cc1ncc(NC(=O)CN2CCC[C@@H]2C)cc1Nc1nn(C)c2nc(Nc3ccnn3C)ncc12 [Example 143]	pIC50	<	5.12
Cc1ncc(C(=O)NCCN(C)C2CCOCC2)cc1Nc1nn(C)c2nc(Nc3cnn(C)c3)ncc12 [Example 21]	pIC50	<	5.12
Cc1ncc(C(=O)NCCN2CC3CCC2CC3)cc1Nc1nn(C)c2nc(Nc3cnn(C)c3)ncc12 [Example 85]	pIC50	=	5.18
Cc1ncc(C(=O)NCCC2CCCCC2)cc1Nc1nn(C)c2nc(Nc3ccc(CC(=O)O)cc3)ncc12 [Example 104]	pIC50	=	7.11
Cn1nc(Nc2cc(C(=O)NCCN3CCCC3(C)C)ccc2F)c2cnc(Nc3ccncn3)nc21 [Example 52]	pIC50	<	5.60
Cc1ncc(C(=O)NCCN(C(C)C)C(C)C)cc1Nc1nn(C)c2nc(Nc3cncnc3)ncc12 [Example 15]	pIC50	<	5.12
Cc1ncc(C(=O)NCCN2CCCC(F)(F)C2)cc1Nc1nn(C)c2nc(Nc3cncnc3)ncc12 [Example 2]	pIC50	<	5.12
Cc1ncc(C(=O)NCCN2[C@H](C)COC[C@H]2C)cc1Nc1nn(C)c2nc(Nc3cnn(C)c3)ncc12 (relative stereo) [Example 94]	pIC50	=	5.93

----------
Parameter pIC50: see the listing below.
Target Or System: PDGFRβ (Rattus norvegicus (Rat), UniProt Q05030)
Sequence (Q05030 whole entry, looked up): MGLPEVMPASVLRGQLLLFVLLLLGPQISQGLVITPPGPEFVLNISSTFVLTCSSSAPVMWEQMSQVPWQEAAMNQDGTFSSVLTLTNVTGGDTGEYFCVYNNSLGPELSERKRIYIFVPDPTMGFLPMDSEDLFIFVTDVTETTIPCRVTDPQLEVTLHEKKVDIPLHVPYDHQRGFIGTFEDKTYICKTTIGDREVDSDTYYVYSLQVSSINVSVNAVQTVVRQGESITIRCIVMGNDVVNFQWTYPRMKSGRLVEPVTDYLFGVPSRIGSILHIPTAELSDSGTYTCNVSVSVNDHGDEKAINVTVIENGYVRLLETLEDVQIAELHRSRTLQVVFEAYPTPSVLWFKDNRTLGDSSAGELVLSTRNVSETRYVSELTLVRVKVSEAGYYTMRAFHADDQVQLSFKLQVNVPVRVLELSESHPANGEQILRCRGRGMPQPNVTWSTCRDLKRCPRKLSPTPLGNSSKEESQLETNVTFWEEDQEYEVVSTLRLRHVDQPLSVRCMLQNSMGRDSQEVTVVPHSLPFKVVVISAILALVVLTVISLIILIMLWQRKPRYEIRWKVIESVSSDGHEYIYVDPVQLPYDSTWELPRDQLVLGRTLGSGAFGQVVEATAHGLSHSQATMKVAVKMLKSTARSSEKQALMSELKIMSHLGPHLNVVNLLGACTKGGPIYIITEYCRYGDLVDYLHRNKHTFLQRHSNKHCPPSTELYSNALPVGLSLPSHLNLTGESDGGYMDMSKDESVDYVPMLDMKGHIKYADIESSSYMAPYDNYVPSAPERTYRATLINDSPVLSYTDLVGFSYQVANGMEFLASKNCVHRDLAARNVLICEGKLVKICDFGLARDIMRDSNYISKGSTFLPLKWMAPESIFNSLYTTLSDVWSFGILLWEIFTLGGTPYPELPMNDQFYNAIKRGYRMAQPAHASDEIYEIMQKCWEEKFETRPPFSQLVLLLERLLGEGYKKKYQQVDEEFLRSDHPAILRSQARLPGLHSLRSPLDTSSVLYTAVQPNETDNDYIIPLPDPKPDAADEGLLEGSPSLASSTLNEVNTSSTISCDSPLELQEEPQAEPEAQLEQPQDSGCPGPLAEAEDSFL
Assay: PDGFRβ Cellular Assay (PDGFRb P-Y751 HTRF, PDGF-BB stimulated A10 cells)
Type: cell-based
Recorded Conditions: A10 cells, 3 hours compound, 15 ng/mL PDGFbb for 10 minutes; read-out: PDGFR Cellular IC50
pIC50: −log10 of the molar value.

Compound	Qualifier Symbol	pIC50
Cc1nn(C)cc1Nc1ncc2c(Nc3cc(C(=O)NCCN4CCC[C@@H]4C)cnc3C)nn(C)c2n1	=	7.27
Cc1ncc(NC(=O)CN2CC[C@H](C)C2)cc1Nc1nn(C)c2nc(Nc3cnn(C)c3)ncc12	=	8.66
Cc1ncc(C(=O)NCCN2CCCC2(C)C)cc1Nc1nn(C)c2nc(Nc3ccc(N4CCOCC4)nc3)ncc12	=	8.12
Cc1ncc(C(=O)NCCN2CCCC23CC3)cc1Nc1nn(C)c2nc(Nc3cncnc3)ncc12	=	7.81
Cc1ncc(C(=O)NCCN2CCCC2(C)C)cc1Nc1nn(C)c2nc(Nc3ccc(=O)[nH]c3)ncc12	=	5.78
Cc1ccc(C(=O)NCCN2CC(C)(C)C2)cc1Nc1nn(C)c2nc(Nc3cnn(C)c3)ncc12	=	8.05
COC1CN(CC(=O)Nc2cnc(C)c(Nc3nn(C)c4nc(Nc5cnn(C)c5)ncc34)c2)C1	=	7.68
Cc1ncc(C(=O)NCCN2CCCC2(C)C)cc1Nc1nn(C)c2nc(Nc3cncc(C(=O)O)c3)ncc12	<	5.00
Cc1ncc(C(=O)NCCN2C[C@H](C)O[C@@H](C)C2)cc1Nc1nn(C)c2nc(Nc3cnn(C)c3)ncc12 (relative stereo)	=	7.64
COCCn1cc(Nc2ncc3c(Nc4cc(NC(=O)CN5CCC[C@@H]5C)cnc4C)nn(C)c3n2)cn1	=	8.35
Cc1ncc(C(=O)NCCN2CCCC23CCC3)cc1Nc1nn(C)c2nc(Nc3cnn(C)c3)ncc12	=	8.32
Cc1ncc(C(=O)NCCN2CCCC2(C)C)cc1Nc1nn(C)c2nc(Nc3ccnc(N4CCN(CCO)CC4)c3)ncc12	=	6.35
Cc1ncc(C(=O)NCCN2[C@H](C)COC[C@H]2C)cc1Nc1nn(C)c2nc(Nc3cnn(C)c3)ncc12 (relative stereo)	=	7.86
COC(=O)C(C)(C)c1cccc(Nc2ncc3c(Nc4cc(C(=O)NCCN5CCCC5(C)C)cnc4C)nn(C)c3n2)c1	=	7.73
Cc1ncc(C(=O)NCCN2C[C@H](C)O[C@@H](C)C2)cc1Nc1nn(C)c2nc(Nc3ccncc3)ncc12	=	7.69
COCCn1cc(Nc2ncc3c(Nc4cc(C(=O)NCCN5CCCC56CCC6)cnc4C)nn(C)c3n2)cn1	=	7.83

----------
Target Or System: VEGFR2, unphosphorylated (Homo sapiens (Human), UniProt P35968)
Sequence (P35968 whole entry, looked up): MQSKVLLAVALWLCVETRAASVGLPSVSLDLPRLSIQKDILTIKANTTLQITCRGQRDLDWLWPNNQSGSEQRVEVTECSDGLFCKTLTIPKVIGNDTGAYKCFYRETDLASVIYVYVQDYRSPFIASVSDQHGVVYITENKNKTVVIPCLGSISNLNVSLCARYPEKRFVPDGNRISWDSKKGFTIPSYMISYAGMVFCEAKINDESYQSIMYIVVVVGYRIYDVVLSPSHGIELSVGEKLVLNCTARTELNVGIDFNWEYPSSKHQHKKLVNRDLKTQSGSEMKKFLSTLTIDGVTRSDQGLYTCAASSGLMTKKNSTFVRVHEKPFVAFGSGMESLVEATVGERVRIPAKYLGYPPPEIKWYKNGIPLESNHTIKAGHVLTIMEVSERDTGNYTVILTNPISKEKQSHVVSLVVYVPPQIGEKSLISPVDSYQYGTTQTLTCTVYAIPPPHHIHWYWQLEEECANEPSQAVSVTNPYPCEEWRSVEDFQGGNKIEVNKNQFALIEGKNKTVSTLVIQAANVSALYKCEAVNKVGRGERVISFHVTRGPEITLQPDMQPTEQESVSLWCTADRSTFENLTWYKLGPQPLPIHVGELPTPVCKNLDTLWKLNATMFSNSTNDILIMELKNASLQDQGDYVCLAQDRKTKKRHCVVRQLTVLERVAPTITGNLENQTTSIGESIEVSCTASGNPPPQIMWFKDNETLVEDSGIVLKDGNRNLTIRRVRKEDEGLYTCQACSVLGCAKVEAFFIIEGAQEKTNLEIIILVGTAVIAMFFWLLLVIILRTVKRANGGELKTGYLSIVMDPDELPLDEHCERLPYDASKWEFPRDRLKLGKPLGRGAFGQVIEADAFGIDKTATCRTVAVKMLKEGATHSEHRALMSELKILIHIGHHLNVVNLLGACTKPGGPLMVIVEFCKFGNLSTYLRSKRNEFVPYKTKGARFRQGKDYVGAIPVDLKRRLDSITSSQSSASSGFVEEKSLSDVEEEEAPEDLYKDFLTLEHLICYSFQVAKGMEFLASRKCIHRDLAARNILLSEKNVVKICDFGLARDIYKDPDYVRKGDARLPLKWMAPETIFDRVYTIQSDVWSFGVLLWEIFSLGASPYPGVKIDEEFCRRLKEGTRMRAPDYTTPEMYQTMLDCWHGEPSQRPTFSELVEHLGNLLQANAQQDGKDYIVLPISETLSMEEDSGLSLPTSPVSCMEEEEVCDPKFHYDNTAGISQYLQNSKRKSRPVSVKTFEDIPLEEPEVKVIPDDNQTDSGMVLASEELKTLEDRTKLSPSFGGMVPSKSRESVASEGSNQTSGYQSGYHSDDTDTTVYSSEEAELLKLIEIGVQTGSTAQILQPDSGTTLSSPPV
Assay: VEGFR ADP GLO assay
Recorded Conditions: 5 nM VEGFR2, 1.2 mM ATP, 1 mg/mL Srctide, 180 min
pIC50: −log10 of the molar value.

Test Smiles	pIC50
Cc1cc(C(=O)NCCN2CCCC2(C)C)sc1Nc1nn(C)c2nc(Nc3cncnc3)ncc12	< 5.12
COCCn1cc(Nc2ncc3c(Nc4cc(NC(=O)CN5CCCC56CCC6)cnc4C)nn(C)c3n2)cn1	< 5.12
Cc1ncc(C(=O)NCCN2CCCC2(C)C)cc1Nc1nn(C)c2nc(Nc3ccnc(N4CCN(CCO)CC4)c3)ncc12	< 5.12
Cc1ccc(C(=O)NCCN2CC(C)(C)C2)cc1Nc1nn(C)c2nc(Nc3cnn(C)c3)ncc12	5.99
Cc1ncc(C(=O)NCCN2CCOC3(CC3)C2)cc1Nc1nn(C)c2nc(Nc3cnn(C)c3)ncc12	5.33
COC1CCN(CCNC(=O)c2cc(C)c(Nc3nn(C)c4nc(Nc5cnn(C)c5)ncc34)s2)CC1	< 5.12
Cn1nc(Nc2cc(C(=O)NCCN3CCCC3(C)C)ccc2F)c2cnc(Nc3ccnnc3)nc21	< 5.12
Cc1ncccc1Nc1ncc2c(Nc3cc(NC(=O)CN4CCC[C@@H]4C)cnc3C)nn(C)c2n1	< 5.12
Cc1ncc(C(=O)NCCN2CCOCC23CC3)cc1Nc1nn(C)c2nc(Nc3cnn(C)c3)ncc12	< 5.12
Cc1ncc(C(=O)NCCN2CCC(F)(F)CC2)cc1Nc1nn(C)c2nc(Nc3cncnc3)ncc12	< 5.12

----------
Target Or System: UniProtKB Q05030
Assay: PDGFRβ Cellular Assay (PDGFRb P-Y751 HTRF, PDGF-BB stimulated A10 cells)
Type: cell-based
Recorded Conditions: A10 cells, 3 hours compound, 15 ng/mL PDGFbb for 10 minutes; read-out: PDGFR Cellular IC50
Protocol: Cell Culture and Preparation: Cells are cultured according to ATCC procedure (5) with the addition of the antibiotic penicillin-streptomycin. If working from frozen, cells should be thawed according to ATCC procedure. Depending on the cell density of frozen vial, cells will need time to recover from thaw. An 80% confluent T75 flask should be enough for one 384 well plate. […] Step 5: Detection: The plate is read using the HTRF module on the BMG Pherastar. Data is analyzed using Genedata Screener. […]
Parameter log10 of IC50: see the listing below.
Quantity Measured: log10 of IC50 (log10 of the value in nM)

Compound	Quantity Measured	Experimental Value
Cc1ncc(NC(=O)CN(CCF)C2CCCC2)cc1Nc1nn(C)c2nc(Nc3cnn(C)c3)ncc12 [Example 133]	log10 of IC50	0.61
Cc1ccc(C(=O)NCCN2CCC[C@@H]2C)cc1Nc1nn(C)c2nc(Nc3cnn(C)c3)ncc12 [Example 65]	log10 of IC50	1.00
Cc1ncc(C(=O)NCCN2CCCC23CCC3)cc1Nc1nn(C)c2nc(Nc3cncnc3)ncc12 [Example 4]	log10 of IC50	1.16
Cn1cc(Nc2ncc3c(Nc4cc(C(=O)NCCN5CC(C)(C)C5)ccc4F)nn(C)c3n2)cn1 [Example 120]	log10 of IC50	1.00
Cc1ncc(C(=O)NCCN2CCCC2(C)C)cc1Nc1nn(C)c2nc(Nc3ccnc(N4CCC(CCO)CC4)c3)ncc12 [Example 111]	log10 of IC50	2.03
Cc1ncc(NC(=O)C2(C(=O)N3CCN(C)CC3)CC2)cc1Nc1nn(C)c2nc(Nc3cnn(C)c3)ncc12 [Example 116]	log10 of IC50	2.86
COCCN(CCNC(=O)c1cnc(C)c(Nc2nn(C)c3nc(Nc4cnn(C)c4)ncc23)c1)C1CCC1 [Example 84]	log10 of IC50	1.05
Cc1ncc(NC(=O)NCCN2CCCC2(C)C)cc1Nc1nn(C)c2nc(Nc3cncnc3)ncc12 [Example 16]	log10 of IC50	3.17
CC(=O)Nc1cncc(Nc2ncc3c(Nc4cc(C(=O)NCCN5CCCC5(C)C)cnc4C)nn(C)c3n2)c1 [Example 99]	log10 of IC50	2.14
Cc1ncc(NC(=O)CN2CCC(F)(F)CC2)cc1Nc1nn(C)c2nc(Nc3cnn(C)c3)ncc12 [Example 72]	log10 of IC50	0.54
Cc1ncc(NC(=O)CN(CCCO)C2CCCC2)cc1Nc1nn(C)c2nc(Nc3cnn(C)c3)ncc12 [Example 80]	log10 of IC50	1.22
Cc1ncc(C(=O)NCCN2CCCC2(C)C)cc1Nc1nn(C)c2nc(Nc3ccnn3C)ncc12 [Example 157]	log10 of IC50	2.04
CO[C@H]1CCN(CC(=O)Nc2cnc(C)c(Nc3nn(C)c4nc(Nc5cnn(C)c5)ncc34)c2)C1 [Example 136]	log10 of IC50	1.09
